Taken from paper PMC12860872.

ASSAY_TEXT: Extrapolated human dosimetry (OLINDA/EXM, ICRP-89 phantoms)
CONDITION_INFO: ICRP 89 Adult Female, extrapolated
QUANTITY_NAME: Absorbed dose (AD average) Left colon (mGy/Mbq)
Quick note: give the figure in mGy/Mbq, leave out the unit.

# example entries with known answers
N#C[C@@H]1CC(F)(F)CN1C(=O)CNC(=O)c1ccnc2ccc(OCCCCNC(=O)CC[C@H](NC(=O)CN3CCN(CC(=O)[O-])CCN(CC(=O)[O-])CCN(CC(=O)[O-])CC3)C(=O)NCCCCOc3ccc4nccc(C(=O)NCC(=O)N5CC(F)(F)C[C@H]5C#N)c4c3)cc12.[161Tb+3] [[^161Tb]Tb-DO3A.Glu.(FAPI)2]    3.75E-02
N#C[C@@H]1CC(F)(F)CN1C(=O)CNC(=O)c1ccnc2ccc(OCCCCNC(=O)CC[C@H](NC(=O)CCC(C(=O)O)N3CCN(CC(=O)[O-])CCN(CC(=O)[O-])CCN(CC(=O)[O-])CC3)C(=O)NCCCCOc3ccc4nccc(C(=O)NCC(=O)N5CC(F)(F)C[C@H]5C#N)c4c3)cc12.[177Lu+3] (stereo partly shown) [[^177Lu]Lu-DOTAGA.Glu.(FAPI)2]    1.05E-01
N#C[C@@H]1CC(F)(F)CN1C(=O)CNC(=O)c1ccnc2ccc(OCCCCNC(=O)CC[C@H](NC(=O)CCC(C(=O)O)N3CCN(CC(=O)[O-])CCN(CC(=O)[O-])CCN(CC(=O)[O-])CC3)C(=O)NCCCCOc3ccc4nccc(C(=O)NCC(=O)N5CC(F)(F)C[C@H]5C#N)c4c3)cc12.[161Tb+3] (stereo partly shown) [[^161Tb]Tb-DOTAGA.Glu.(FAPI)2]    4.20E-02

Recorded Absorbed dose (AD average) Left colon for N#C[C@@H]1CC(F)(F)CN1C(=O)CNC(=O)c1ccnc2ccc(OCCCCNC(=O)CC[C@H](NC(=O)CN3CCN(CC(=O)[O-])CCN(CC(=O)[O-])CCN(CC(=O)[O-])CC3)C(=O)NCCCCOc3ccc4nccc(C(=O)NCC(=O)N5CC(F)(F)C[C@H]5C#N)c4c3)cc12.[177Lu+3] [[^177Lu]Lu-DO3A.Glu.(FAPI)2] , please?
6.93E-02

----------
ASSAY_TEXT: Extrapolated human dosimetry (OLINDA/EXM, ICRP-89 phantoms)
CONDITION_INFO: ICRP 89 Adult Female, extrapolated
Absorbed dose (AD average) Urinary Bladder Wall overview

Below: 3 compounds and their reported Absorbed dose (AD average) Urinary Bladder Wall.
N#C[C@@H]1CC(F)(F)CN1C(=O)CNC(=O)c1ccnc2ccc(OCCCCNC(=O)CC[C@H](NC(=O)CCC(C(=O)O)N3CCN(CC(=O)[O-])CCN(CC(=O)[O-])CCN(CC(=O)[O-])CC3)C(=O)NCCCCOc3ccc4nccc(C(=O)NCC(=O)N5CC(F)(F)C[C@H]5C#N)c4c3)cc12.[161Tb+3] (stereo partly shown) [[^161Tb]Tb-DOTAGA.Glu.(FAPI)2]    4.10E-02 mGy/Mbq
N#C[C@@H]1CC(F)(F)CN1C(=O)CNC(=O)c1ccnc2ccc(OCCCCNC(=O)CC[C@H](NC(=O)CCC(C(=O)O)N3CCN(CC(=O)[O-])CCN(CC(=O)[O-])CCN(CC(=O)[O-])CC3)C(=O)NCCCCOc3ccc4nccc(C(=O)NCC(=O)N5CC(F)(F)C[C@H]5C#N)c4c3)cc12.[177Lu+3] (stereo partly shown) [[^177Lu]Lu-DOTAGA.Glu.(FAPI)2]    3.05E-02 mGy/Mbq
N#C[C@@H]1CC(F)(F)CN1C(=O)CNC(=O)c1ccnc2ccc(OCCCCNC(=O)CC[C@H](NC(=O)CN3CCN(CC(=O)[O-])CCN(CC(=O)[O-])CCN(CC(=O)[O-])CC3)C(=O)NCCCCOc3ccc4nccc(C(=O)NCC(=O)N5CC(F)(F)C[C@H]5C#N)c4c3)cc12.[161Tb+3] [[^161Tb]Tb-DO3A.Glu.(FAPI)2]    3.70E-02 mGy/Mbq

Next item in the queue.
What value of measured Absorbed dose (AD average) Urinary Bladder Wall is listed for N#C[C@@H]1CC(F)(F)CN1C(=O)CNC(=O)c1ccnc2ccc(OCCCCNC(=O)CC[C@H](NC(=O)CN3CCN(CC(=O)[O-])CCN(CC(=O)[O-])CCN(CC(=O)[O-])CC3)C(=O)NCCCCOc3ccc4nccc(C(=O)NCC(=O)N5CC(F)(F)C[C@H]5C#N)c4c3)cc12.[177Lu+3] [[^177Lu]Lu-DO3A.Glu.(FAPI)2] ?
2.73E-02 mGy/Mbq
